Answer each item with its documented protein stability index.
B1: TOR1AIP2 (parent)
chain: DGAGRTWQDSDTVKLLVDLELSYG

variants of: B1; experiment: protein stability index of a GFP-peptide fusion (GPS, HEK-293T) (PSI 1-6); higher = more stable; details: c terminus: a fixed tail appended;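 further: lentivirally expressed fusions sorted by FACS into six bins by GFP to DsRed ratio, PSI derived from sequencing read proportions per bin multiplied by bin number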

State, in one line, measured protein stability index of DGAGRTWQDSDTVKSLVDLELSYG [L15S] 4.04

State, in one line, measured protein stability index of DGAGRTWQDSDTVKLLVDLELMYG [S22M] 2.13

State, in one line, measured protein stability index of DNAGRTWQDSDTVKLLVDLELSYG [G2N] 2.01

State, in one line, measured protein stability index of DGAGRTWQDTDTVKLLVDLELSYG [S10T] 1.99

State, in one line, measured protein stability index of DGAGRTWQDSDTVKLLVALELSYG [D18A] 4

State, in one line, measured protein stability index of DGAGETWQDSDTVKLLVDLELSYG [R5E] 2.67
